# experimentalSystem: H^+/K^+ ATPase (Sus scrofa)
# Construct: using an enzyme isolated from the rabbit or porcine (pig) fundus; from tissue; host or cells: porcine (pig) gastric fundus
# Sequence (P19156 2-1034 limits assumed): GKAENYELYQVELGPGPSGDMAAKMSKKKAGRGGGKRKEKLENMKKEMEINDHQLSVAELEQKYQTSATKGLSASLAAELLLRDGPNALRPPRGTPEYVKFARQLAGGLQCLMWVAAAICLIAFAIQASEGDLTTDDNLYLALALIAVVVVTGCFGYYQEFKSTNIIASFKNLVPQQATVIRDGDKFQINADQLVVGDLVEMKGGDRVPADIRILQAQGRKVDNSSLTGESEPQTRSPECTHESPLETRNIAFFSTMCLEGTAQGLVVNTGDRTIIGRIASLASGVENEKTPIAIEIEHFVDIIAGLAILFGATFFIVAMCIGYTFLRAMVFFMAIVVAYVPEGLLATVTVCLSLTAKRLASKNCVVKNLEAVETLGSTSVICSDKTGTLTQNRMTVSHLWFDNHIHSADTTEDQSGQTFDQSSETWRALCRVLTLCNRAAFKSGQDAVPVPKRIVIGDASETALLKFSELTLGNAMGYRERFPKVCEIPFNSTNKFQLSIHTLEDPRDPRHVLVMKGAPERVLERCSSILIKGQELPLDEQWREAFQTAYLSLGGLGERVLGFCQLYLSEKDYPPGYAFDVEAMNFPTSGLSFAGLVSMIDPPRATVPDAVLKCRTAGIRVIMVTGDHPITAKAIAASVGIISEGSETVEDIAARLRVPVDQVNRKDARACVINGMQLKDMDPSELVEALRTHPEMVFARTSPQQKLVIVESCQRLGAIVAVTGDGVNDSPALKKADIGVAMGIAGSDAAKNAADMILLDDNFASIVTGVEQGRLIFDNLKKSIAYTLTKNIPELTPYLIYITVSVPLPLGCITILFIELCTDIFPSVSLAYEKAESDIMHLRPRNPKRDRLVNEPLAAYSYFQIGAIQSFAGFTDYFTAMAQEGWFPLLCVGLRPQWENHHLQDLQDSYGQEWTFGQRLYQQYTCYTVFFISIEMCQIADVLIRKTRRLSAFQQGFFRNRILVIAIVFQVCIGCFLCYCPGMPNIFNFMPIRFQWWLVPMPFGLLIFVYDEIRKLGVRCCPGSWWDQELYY
# Sequence (P18434 whole entry partner): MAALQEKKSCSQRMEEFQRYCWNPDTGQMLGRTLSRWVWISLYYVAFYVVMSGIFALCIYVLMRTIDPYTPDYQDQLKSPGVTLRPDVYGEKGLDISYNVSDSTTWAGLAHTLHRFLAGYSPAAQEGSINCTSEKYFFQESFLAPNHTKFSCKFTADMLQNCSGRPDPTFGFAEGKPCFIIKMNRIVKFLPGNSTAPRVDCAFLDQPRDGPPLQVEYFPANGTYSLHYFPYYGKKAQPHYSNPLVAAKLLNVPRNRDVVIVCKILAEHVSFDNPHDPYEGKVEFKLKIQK
# testSummary: H+K+-ATPase assay (p-NPP to p-NP), enzyme from porcine (pig) fundus
# Format: biochemical
# assayContext: enzyme from porcine fundus, pH 6.0, 30 min pre-incubation at 37° C.
I'd be grateful if you could share measured IC50 for these entries.
One number for each entry, in nM.

Some solved cases for reference:
COc1ccc2[nH]c(-n3cc(C)c(=O)c(C)c3CSSCc3c(C)c(=O)c(C)cn3-c3nc4cc(OC)ccc4[nH]3)nc2c1    4100
Cc1cn(-c2nc3cc(F)ccc3[nH]2)c(CSSCc2c(C)c(=O)c(C)cn2-c2nc3cc(F)ccc3[nH]2)c(C)c1=O    1300
COc1c(CSSCc2c(OC)c(=O)ccn2-c2nc3ccccc3[nH]2)n(-c2nc3ccccc3[nH]2)ccc1=O    2000
COc1ccc2[nH]c(-n3ccc(=O)c(OC)c3CSSCc3c(OC)c(=O)ccn3-c3nc4cc(OC)ccc4[nH]3)nc2c1    4700
COc1c(CSSCc2c(OC)c(=O)ccn2-c2nc3cc(C(F)(F)F)ccc3[nH]2)n(-c2nc3cc(C(F)(F)F)ccc3[nH]2)ccc1=O    1700
Cc1cn(-c2nc3ccccc3[nH]2)c(CSSCc2c(C)c(=O)c(C)cn2-c2nc3ccccc3[nH]2)c(C)c1=O    1300
COc1c(CSSCc2c(OC)c(=O)ccn2-c2nc3cc(C)ccc3[nH]2)n(-c2nc3cc(C)ccc3[nH]2)ccc1=O    2300
COc1ccc2[nH]c(-n3ccc(=O)c(OC)c3CSSCc3c(OC)c(=O)ccn3-c3nc4nc(OC)ccc4[nH]3)nc2n1    8400
Cc1cn(-c2nc3ncccc3[nH]2)c(CSSCc2c(C)c(=O)c(C)cn2-c2nc3ncccc3[nH]2)c(C)c1=O    14000

# input for lookup
Prompt line: Need IC50 of Cc1ccc2[nH]c(-n3cc(C)c(=O)c(C)c3CSSCc3c(C)c(=O)c(C)cn3-c3nc4cc(C)ccc4[nH]3)nc2c1 , thanks.
Response line: 2900
